Here, each record is paired with measured Ki data.
Molecular target: 5-hydroxytryptamine receptor 2C (Homo sapiens)
Assay: Displacement of [3H]-Mesulergine from human 5-HT2C receptor expressed in HEKT cells after 90 mins by microbeta scintillation counting analysis
Assay type: cell-based

The cases that follow already have their Ki on record.
> print(dat)
                                   compound  reported
1  C[C@@H]1SC(c2ccco2)=N[C@H]1CO (relative stereo)   > 10 µM
2  C[C@H]1SC(c2ccccc2O)=N[C@@H]1CO (racemic)    2.2 µM

Entry C[C@@H]1SC(c2ccsc2)=N[C@H]1CO (relative stereo) ; Ki = > 10 µM

// Ki lookup, compound = C[C@@H]1SC(c2ccc(-c3ccccc3)cc2)=N[C@H]1Cc1c[nH]cn1 (relative stereo) , result: 1.4 µM

According to the records, this compound C[C@@H]1SC(c2ccccc2)=N[C@H]1Cc1c[nH]cn1 (relative stereo) displays Ki of 1.2 µM

Briefly, Ki measured for Oc1ccccc1C1=N[C@@H]2CCC[C@@H]2S1 (racemic) : > 10 µM

Form: compound = CCCCCCCCOc1ccc(C2=N[C@@H](CO)[C@H](C)S2)cc1 (relative stereo) ; Ki = 3.6 µM

Sample CCCCOc1ccc(C2=N[C@@H](CO)[C@H](C)S2)cc1 (relative stereo) ; Ki observed: 3.2 µM

Reported Ki of C[C@@H]1SC(c2c[nH]c3ccccc23)=N[C@H]1CO (relative stereo) : 5.4 µM

====

Target: UniProtKB P28223
Sequence (P28223 whole entry): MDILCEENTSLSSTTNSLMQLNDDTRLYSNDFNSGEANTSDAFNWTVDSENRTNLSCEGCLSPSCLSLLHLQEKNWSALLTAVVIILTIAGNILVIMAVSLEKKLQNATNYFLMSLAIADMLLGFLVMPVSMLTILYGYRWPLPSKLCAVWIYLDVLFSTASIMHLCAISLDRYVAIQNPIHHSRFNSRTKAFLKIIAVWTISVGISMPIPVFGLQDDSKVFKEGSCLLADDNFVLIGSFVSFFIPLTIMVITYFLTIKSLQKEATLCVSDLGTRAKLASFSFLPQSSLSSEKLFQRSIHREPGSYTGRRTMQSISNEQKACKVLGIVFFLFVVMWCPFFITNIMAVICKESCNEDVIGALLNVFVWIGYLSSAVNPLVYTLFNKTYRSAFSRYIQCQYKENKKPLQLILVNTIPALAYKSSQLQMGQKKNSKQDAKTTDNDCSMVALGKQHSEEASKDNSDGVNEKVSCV
Test: Antagonist activity at 5-HT2A receptor (unknown origin) by calcium release assay
measured parameter: IC50 (µM)
// units = µM; emit number, no label

IC50 value, target or system UniProtKB P28223, for Oc1ccccc1C1=NC(Cc2c[nH]cn2)C(c2ccccc2)S1 (racemic) : 13

====

Biological target: 5-hydroxytryptamine receptor 2B (Homo sapiens, UniProt P41595)
Sequence (P41595 whole entry): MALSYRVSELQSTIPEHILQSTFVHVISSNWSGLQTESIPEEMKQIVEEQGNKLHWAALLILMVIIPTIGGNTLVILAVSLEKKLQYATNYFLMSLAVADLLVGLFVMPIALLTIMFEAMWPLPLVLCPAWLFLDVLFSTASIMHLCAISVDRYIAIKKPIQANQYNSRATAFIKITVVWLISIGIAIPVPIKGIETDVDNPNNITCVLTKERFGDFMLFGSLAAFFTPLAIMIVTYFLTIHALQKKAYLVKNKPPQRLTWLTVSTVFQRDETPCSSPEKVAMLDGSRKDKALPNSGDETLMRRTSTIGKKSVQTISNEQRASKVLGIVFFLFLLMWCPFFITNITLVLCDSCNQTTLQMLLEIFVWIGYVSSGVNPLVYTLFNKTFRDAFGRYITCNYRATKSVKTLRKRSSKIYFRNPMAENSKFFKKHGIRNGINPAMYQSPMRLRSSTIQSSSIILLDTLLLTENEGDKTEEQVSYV
Experiment: Displacement of [3H]-LSD from human 5-HT2B receptor expressed in HEK cells after 90 mins by microbeta scintillation counting analysis
Format: cell-based
measured parameter: pKi
# log scale: pKi equals minus log10 of the concentration in mol/L

# example entries with known answers
> print(dat)
                                   molecule  measured.parameter  reported
1  CNc1ccccc1C1=N[C@@H](CO)[C@H](C)S1 (relative stereo)                 pKi      5.92
2  CCCCOc1ccc(C2=N[C@@H](CO)[C@H](C)S2)cc1 (relative stereo)                 pKi      5.12
3  C[C@@H]1SC(c2ccccc2)=N[C@H]1CO (relative stereo)                 pKi      5.52
4  Oc1ccccc1C1=NC(Cc2c[nH]cn2)CS1 (racemic)                 pKi      7.00

// moving on: another record for pKi
The measured pKi associated with C[C@@H]1SC(c2ccccc2O)=N[C@H]1CO reads 6.89

====

Target: 5-hydroxytryptamine receptor 1D (Homo sapiens)
Assay: Antagonist activity at 5-HT1D receptor (unknown origin) by Tango assay
Type: functional
measured parameter: IC50

> print(dat)
                                   molecule                               target.desc  reported
1  Oc1ccccc1C1=NC(Cc2c[nH]cn2)C(c2ccccc2)S1 (racemic)  5-hydroxytryptamine receptor 1D (Homo sapiens)   > 10 µM

# IC50 measured on 5-hydroxytryptamine receptor 1D (Homo sapiens) for item CCCCOc1ccc(C2=N[C@@H](CO)[C@H](C)S2)cc1 (relative stereo) = > 10 µM

# lookup: CCCCCCOc1ccc(C2=N[C@@H](CO)[C@H](C)S2)cc1 (relative stereo) on 5-hydroxytryptamine receptor 1D (Homo sapiens), IC50 = > 10 µM

====

Target: 5-hydroxytryptamine receptor 1D (Homo sapiens, UniProt P28221)
Sequence (P28221 whole entry): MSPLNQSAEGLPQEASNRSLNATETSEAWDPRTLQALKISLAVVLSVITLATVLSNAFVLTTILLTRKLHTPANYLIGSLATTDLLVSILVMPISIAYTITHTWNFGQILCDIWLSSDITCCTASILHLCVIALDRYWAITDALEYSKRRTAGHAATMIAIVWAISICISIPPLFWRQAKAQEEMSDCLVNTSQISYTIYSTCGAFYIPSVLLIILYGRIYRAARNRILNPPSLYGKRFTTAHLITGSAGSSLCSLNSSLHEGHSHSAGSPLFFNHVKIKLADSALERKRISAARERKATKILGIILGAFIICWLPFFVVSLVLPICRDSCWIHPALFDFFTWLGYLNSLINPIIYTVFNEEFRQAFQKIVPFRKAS
Assay: Displacement of [3H]5-CT from human 5-HT1D receptor expressed in HEKT cells after 90 mins by microbeta scintillation counting analysis
Type: cell-based
pKi: −log10 of the molar value.
measured parameter: pKi

Known results for compounds:
> print(dat)
                                   compound  reported
1  CCCCCCCCOc1ccc(C2=N[C@@H](CO)[C@H](C)S2)cc1 (relative stereo)    < 5.00
2  Oc1ccccc1C1=N[C@@H]2CCC[C@@H]2S1 (racemic)    < 5.00

Now for another entry.
Lab note: measured pKi of CCCCCCOc1ccc(C2=N[C@@H](CO)[C@H](C)S2)cc1 (relative stereo) was < 5.00

====

Recorded pKi for the following compounds
Target: 5-hydroxytryptamine receptor 2B (Homo sapiens, UniProt P41595)
Test: Displacement of [3H]-LSD from human 5-HT2B receptor expressed in HEK cells after 90 mins by microbeta scintillation counting analysis
Assay type: cell-based
pKi: −log10 of the molar value.

Consider the reported pKi for these compounds:
> print(dat)
                                   compound                               target.desc  measured.parameter  reported
1  CCCCCCCCOc1ccc(C2=N[C@@H](CO)[C@H](C)S2)cc1 (relative stereo)  5-hydroxytryptamine receptor 2B (Homo sapiens, UniProt P41595)                 pKi    < 5.00
2  Oc1ccccc1C1=N[C@@H]2CCC[C@@H]2S1 (racemic)  5-hydroxytryptamine receptor 2B (Homo sapiens, UniProt P41595)                 pKi    < 5.00

Proceeding to the next compound to report its pKi.
The reported value for C[C@@H]1SC(c2ccco2)=N[C@H]1CO (relative stereo) in terms of pKi is < 5.00

====

Target: 5-hydroxytryptamine receptor 2C (Homo sapiens, UniProt P28335)
Sequence (P28335 whole entry): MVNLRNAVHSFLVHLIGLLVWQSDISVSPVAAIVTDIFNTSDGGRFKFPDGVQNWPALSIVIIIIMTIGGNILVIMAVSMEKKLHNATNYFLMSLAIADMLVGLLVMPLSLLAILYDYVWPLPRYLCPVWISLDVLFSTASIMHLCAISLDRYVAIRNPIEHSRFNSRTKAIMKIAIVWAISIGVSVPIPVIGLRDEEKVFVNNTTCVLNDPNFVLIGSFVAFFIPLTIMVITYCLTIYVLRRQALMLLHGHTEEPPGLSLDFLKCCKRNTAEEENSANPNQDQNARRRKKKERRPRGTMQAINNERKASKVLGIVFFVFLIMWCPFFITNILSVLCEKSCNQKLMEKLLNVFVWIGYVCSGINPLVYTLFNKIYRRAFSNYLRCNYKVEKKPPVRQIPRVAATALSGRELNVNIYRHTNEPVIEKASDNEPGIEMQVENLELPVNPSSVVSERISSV
Assay: Displacement of [3H]-Mesulergine from human 5-HT2C receptor expressed in HEKT cells after 90 mins by microbeta scintillation counting analysis
Format: cell-based
# Lookup of reported Ki keyed by entry
// units = nM; emit number, no label

> print(dat)
                                   molecule  unit.abbreviation  reported
1  C[C@@H]1SC(c2ccccc2)=N[C@H]1CO (relative stereo)                 nM     35000
2  C[C@H]1SC(c2ccc(-c3ccccc3)cc2)=N[C@H]1Cc1c[nH]cn1 (relative stereo)                 nM      2300
3  C[C@@H]1SC(c2ccccc2)=N[C@@H]1Cc1c[nH]cn1 (relative stereo)                 nM       750
4           C[C@@H]1SC(c2ccccc2O)=N[C@H]1CO                 nM      1600
5  C[C@@H]1SC(c2cc3ccccc3cc2O)=N[C@H]1CO (relative stereo)                 nM      2400
6  COC(=O)[C@H](Cc1cnc[nH]1)NC(=O)[C@@H]1N=C(c2ccccc2O)S[C@@H]1C                 nM       880

Item: C[C@@H]1SC(c2ccccc2O)=N[C@H]1Cc1c[nH]cn1 (racemic) | Ki: 140

Noted for Oc1ccccc1C1=NC(Cc2c[nH]cn2)C(c2ccccc2)S1 (racemic) : its Ki reads 770

Quick note, Ki for C[C@@H]1SC(c2cccs2)=N[C@H]1CO (relative stereo) landed at 2200

====

# Ki per record follows
Molecular target: UniProt P34969
Sequence (P34969 whole entry): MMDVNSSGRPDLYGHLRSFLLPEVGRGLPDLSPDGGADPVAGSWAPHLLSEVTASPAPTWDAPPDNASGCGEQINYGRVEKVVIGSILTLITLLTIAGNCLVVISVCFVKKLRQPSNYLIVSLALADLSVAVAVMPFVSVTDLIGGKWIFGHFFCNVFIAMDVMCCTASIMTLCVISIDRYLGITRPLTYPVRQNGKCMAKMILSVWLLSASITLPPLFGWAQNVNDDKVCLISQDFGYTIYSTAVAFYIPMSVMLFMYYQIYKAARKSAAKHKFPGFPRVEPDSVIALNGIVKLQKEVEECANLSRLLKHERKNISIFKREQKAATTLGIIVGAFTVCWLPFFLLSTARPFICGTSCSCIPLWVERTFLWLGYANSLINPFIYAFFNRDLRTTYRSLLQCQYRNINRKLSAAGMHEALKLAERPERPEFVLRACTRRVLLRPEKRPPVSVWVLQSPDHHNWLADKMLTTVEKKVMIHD
Experiment: Displacement of [3H]-LSD from human 5-HT7A receptor expressed in HEK cells after 90 mins by microbeta scintillation counting analysis
Assay type: cell-based

Sure, the documented Ki for C[C@@H]1SC(c2ccccc2)=N[C@H]1Cc1c[nH]cn1 (relative stereo) is > 10 µM

Memo: CNc1ccccc1C1=N[C@@H](CO)[C@H](C)S1 (relative stereo) , reported Ki: > 10 µM

Entry C[C@@H]1SC(c2ccccc2O)=N[C@H]1Cc1c[nH]cn1 (racemic) — recorded Ki = 3.6 µM

Looking up COC(=O)[C@H](Cc1cnc[nH]1)NC(=O)[C@@H]1N=C(c2ccccc2O)S[C@@H]1C , I found its Ki recorded as > 10 µM

Oc1ccccc1C1=NC(Cc2c[nH]cn2)CS1 (racemic) yielded Ki of 7.4 µM

CCCCOc1ccc(C2=N[C@@H](CO)[C@H](C)S2)cc1 (relative stereo) has a reported Ki of > 10 µM

For record C[C@@H]1SC(c2cccs2)=N[C@H]1CO (relative stereo) the listed Ki is > 10 µM

Given item C[C@@H]1SC(c2ccco2)=N[C@H]1CO (relative stereo) , the value recorded as its Ki is > 10 µM

====

Molecular target: 5-hydroxytryptamine receptor 1D (Homo sapiens, UniProt P28221)
Experiment: Displacement of [3H]5-CT from human 5-HT1D receptor expressed in HEKT cells after 90 mins by microbeta scintillation counting analysis
Format: cell-based
measured parameter: Ki

> print(dat)
                                   compound  reported
1  C[C@@H]1SC(c2cccs2)=N[C@H]1CO (relative stereo)   > 10 µM
2  C[C@@H]1SC(c2ccco2)=N[C@H]1CO (relative stereo)   > 10 µM

Data point: C[C@@H]1SC(c2cc3ccccc3cc2O)=N[C@H]1CO (relative stereo) ; Ki = > 10 µM

All figures here come from ChEMBL document CHEMBL4190286.
